Here, each record is paired with measured IC50 data.
subject_of_test: UniProt Q13946
Sequence (Q13946 whole entry): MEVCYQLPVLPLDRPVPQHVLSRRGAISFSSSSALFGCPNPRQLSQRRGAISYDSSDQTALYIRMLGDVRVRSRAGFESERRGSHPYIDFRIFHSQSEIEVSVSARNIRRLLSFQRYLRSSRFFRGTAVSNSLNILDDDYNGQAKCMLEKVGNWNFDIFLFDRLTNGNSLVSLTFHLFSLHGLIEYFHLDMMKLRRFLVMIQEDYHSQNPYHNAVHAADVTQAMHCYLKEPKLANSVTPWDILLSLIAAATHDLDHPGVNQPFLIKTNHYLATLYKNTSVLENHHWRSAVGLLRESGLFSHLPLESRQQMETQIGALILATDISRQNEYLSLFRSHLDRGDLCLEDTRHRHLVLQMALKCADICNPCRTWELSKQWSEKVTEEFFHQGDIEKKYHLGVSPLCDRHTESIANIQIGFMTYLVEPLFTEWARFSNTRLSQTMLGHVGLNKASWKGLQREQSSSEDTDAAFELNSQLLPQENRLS
Give just the numeric value; nM need not be written.

> print(dat)
                          test.smiles  measurement.units  numeric.result
1  CCC(CC)/N=c1\sc(-c2ccc(Cl)cc2)nn1C                 nM            5600

Recorded IC50 of Cn1nc(-c2ccc(C(N)=O)cc2)s/c1=N\C1CCCCC1 , please.
60

Which measured IC50 value corresponds to Cn1nc(-c2ccc(Cl)cc2)s/c1=N\c1cccc(C(N)=O)c1 ?
1630

Param item = Cn1nc(-c2ccc(C(=O)NCCN3CCOCC3)cc2)s/c1=N\C1CCCCC1 ; retrieve measured IC50.
30

Using the record for Cn1nc(-c2ccc(Cl)cc2)s/c1=N\c1c(O)cccc1C(=O)O , report its IC50.
1310
